assay: Ratio of the ILS tested compound/quinocarcin was determined in CD2F1 mice on days 1-5.; note: test concentration or dose not given here; format: functional, Mus musculus
// classify: if (R < 0.9) class 1 else class 0

Is it true that R reported for COC1=C(SC(C)C)C(=O)C2=C(C[C@H]3[C@H]4[C@H](C(=O)O)C[C@@H](C5OC[C@@H]2N53)N4C)C1=O (stereo not given in full) is less than 0.9? class 1

More entries:
Decide: R of CC(C)Sc1c(O)c2c(c(O)c1SC(C)C)[C@H](CO)N1C(C#N)[C@@H]3C[C@@H](C(=O)O)[C@H]([C@@H]1C2)N3C (stereo not given in full) strictly below 0.9? class 0

Hi there! Is R for CCSC1=C(OC)C(=O)C2=C(C[C@H]3[C@H]4[C@H](C(=O)O)C[C@@H](C(C#N)N3[C@H]2CO)N4C)C1=O (stereo not given in full) below 0.9, do you know? class 1

Item COC1=C(SC(C)C)C(=O)C2=C(C1=O)[C@@H]1COC3[C@@H]4C[C@@H](C(=O)O)[C@H]([C@H](C2)N31)N4C (stereo not given in full) : R beneath 0.9, strictly? class 0

Reference source for all entries: ChEMBL document CHEMBL1125273
